The reported measurements were obtained from the supplement of paper PMC9170038.

Tested on: MS2 coat protein
assayRemarks: apparent KD of MS2 coat protein; designed switch direction (-1 OFF switch, 1 ON switch): -1; higher = weaker reporter binding
assaySetup: input ligand: none
Measured apparent KD of MS2 coat protein of individual entries
The reply should contain only the number, in nM.

Field: example entries. Status: answers known.
UGCGGUUGAGGAUAUACGUAGAAGUAGAUUCAUGUAAAACUACAUGAGGAUCACCCAUGUAGAAGGCAAUCGCU [Mat - Exclusion 2 - JL Mod - D40] (Eterna round: R97, puzzle: Exclusion 2)    21.5
UGUCUUCAUAUCACAUGAGGAUCACCCAUGUUAUUCAUCUCGUAGGAUAUCGAGGUUUAUUAUUUCGAGAAGGACGUAUUGUUU [JR_ExcNG3_Sub076] (Eterna round: R96, puzzle: Exclusion NG 3)    148

Lab request: please report apparent KD of MS2 coat protein under test system MS2 coat protein for UACAUGAGGAUCACCCAUGUUUUGUCGUGUAUGGUAUUUAUCUAGGAUAUCAUGUUAUUUAUUUAUGAGAAGGAGAAUAUUAAU [JMF's solution 24] (Eterna round: R96, puzzle: Exclusion NG 3) 32.5

Now consider UUCCUCACUUCUUUGUCUCACAUGAGGAUCACCCAUGUAAUAUAGGAUAUGCUUAGUAUUUAUAUGCAGAAGGAUAUUAGUAUU [JR_ExcNG3_Sub084] (Eterna round: R96, puzzle: Exclusion NG 3) . 55.5

Now consider AACCUACAUGAGGAUCACCCAUGUGAGGAUAUAUUGGUAUUUAUAUUAUUUUUUAGAGGUAGAAGGCGCGUGAU [JR_Exc1_Sub021] (Eterna round: R97, puzzle: Exclusion 1) . 14.2

---

Measured apparent KD of MS2 coat protein of individual entries
Tested on: MS2 coat protein
assayRemarks: apparent KD of MS2 coat protein; designed switch direction (-1 OFF switch, 1 ON switch): 1; higher = weaker reporter binding
assaySetup: input ligand: none

Field: example entries. Status: answers known.
ACAUGAGAGAUAGGAUAUCUUGUACCUACAUGUGACAUGAGGAUCACCCAUGUGGUAAGUAUGAGAGAGAAGGAUCAGAUAUGU [Equivalence 36 - Jieux - Same State NG 2] (Eterna round: R96, puzzle: Same State NG 2)    21.2 nM
GUACAGAUUAUAGGAUAUCACGUCGAUUAGACGUGAGAAGGAUAAUCCCACAUGAAUAUUAAUACAUGAGGAUCACCCAUGUAC [SSNG1/18-B2] (Eterna round: R96, puzzle: Same State NG 1)    30.5 nM
AUUCGUUAGAUAGGAUAUCACCAUACAUGAGGAUCACCCAUGUUUACCACGCUGGUUUUUCAUACUGAGAAGGAUCUUGAUGAC [JR_SSNG2_Sub006] (Eterna round: R96, puzzle: Same State NG 2)    30 nM
GGUCCAGCCUGAGCUGGACAAAAGCAUGUACAUGAGGAUCACCCAUGUCAUGUACAAGCUUUUUGCUCGUCAUAAAU [Mat - hsa-mir-208a - 96] (Eterna round: R96, puzzle: Sensor for hsa-mir-208a)    435 nM

Would you kindly share the measured apparent KD of MS2 coat protein for UUCACCUUUUUUUACAUGAGGAUCACCCAUGUUUUUUUUACGUAGGAUAUCGAUGCUUGUUUUUUCGAGAAGGACGAUGUAAGU [JR_SSND3_Sub052] (Eterna round: R96, puzzle: Same State NG 3) ? 18.2 nM

Now consider GUGGUGGGUUGAGGAUAUUGGUUGUUGUUGUUCUACAUGAGGAUCACCCAUGUGGGUUGUGGUUUUGAGAAGGUUGGUUGCUGG [salish99_SSNG2_r04_049] (Eterna round: R96, puzzle: Same State NG 2) . 42.8 nM

Now consider GCUCGACGUAUGGCCUACAUGAGGAUCACCCAUGUGACUGGGCAGGAUAUCUAAAUGCAGAAUGUAGAGAAGGGCCCGUCGAGC [SameState NG3 #49] (Eterna round: R96, puzzle: Same State NG 3) . 188 nM

Now consider CAAGAAAACGCAGGAUAUACCCGGGCUACCCGGGUAGAAGGGUGACACAUGAGGAUCACCCAUGUACAUAGAAUUAGCUAUGGA [Soberaa] (Eterna round: R96, puzzle: Same State NG 1) . 26.7 nM

---

Test system: MS2 coat protein
assayRemarks: apparent KD of MS2 coat protein; higher = weaker reporter binding
assaySetup: Eterna round: R107; input ligand: theophylline 2 mM
Assign yes whenever apparent KD of MS2 coat protein does not fall below 60 nM; assign no whenever it does.

Take a look at these entries with their results.
AACGUAUACAGAAGGAGCGUGAAUUAUAUUACUCAUUCAUAUACAUGAGGAUCACCCAUGUCACAGGUAGGUCGCUGUAUUCGUA [JR_ExcArginiB_Sub020]    yes
CCGUCACAUGAGGAUCACCCAUGUGCGGAAGGAGCGGACGAAAGUCCAGGUAGGUCGCCGUAUAGCCAAUGACCAGCAGUGUCGG [XARG-A 21]    no
UGAUACACGGGAAGGAGCGACAGGGAUAAGUCCGCACGGGCCGCACAUGAGGAUCACCCAUGUCAGGUAGGUCGCCCGUGGCGUG [Erxemarima]    no

Confirm if apparent KD of MS2 coat protein reported for the sequence UACAUGAGGAUCACCCAUGUCCCAUGUGAACGAGGACCGGUACGGCCGCCACUCGAAUAAGGCGGCACAUGAGGAUCACCCACAU [AstrosSSTry#2] is 60 nM or above. yes

Now consider GGUACAUGAGGAUCACCCAUGUGUCAUGAUACCAGACAUGAAAAUGUCCCUUGGCAGCAUGCCUGAUGGCCGCGUUUAGCGGCCG [Liskovec] . no

Now consider CGAGUGAGUUCAAUCGAAUAACGGUUUUCGCGAGGACCGGUACGGCCGCCACUCGUGUGAUAUCACACAUGAGGAUCACCCAUGU [3'end-1] . yes

Now consider UGUCGAAACUGAAGGAGCGAGAUGACAAACAUGAGGAUCACCCAUGUUAUGGGUUGUUAAUCUCAGGUAGGUCGCAGUGACAAAA [Same State Arginine B GF 16] . yes

Now consider CACAGUGCGAAUUUGAAAUCGCACGAUCCUCGAGGACCGGUACGGCCGCCACUCGCGCGGGUCGUACAUGAGGAUCACCCAUGUC [Beertele] . yes

---

Test system: MS2 coat protein
assayRemarks: apparent KD of MS2 coat protein; designed switch direction (-1 OFF switch, 1 ON switch): -1; higher = weaker reporter binding
assaySetup: input ligand: FMN 200 uM
valueKind: apparent KD of MS2 coat protein (nM)
The reply should contain only the number, in nM.

Field: example entries. Status: answers known.
AUCCUCACUUUUUAAGCGAACAUGAGGAUCACCCAUGUACAAGCUUUUUGCUCGGCUUAUAAAGGGUUGGAAACAAC [Alacar Attempt 3] (Eterna round: R97, puzzle: Sensor, turn-off variant 1)    16.8
AAACGGCAGGGAGGAUAUGCUUACCUGGGUCGUCUUCAGACAUGAGGAUCACCCAUGUAGUCGACGCAGAAGGCCCUCAAAGCC [JL ViennaUCT Ontiis mod 3] (Eterna round: R96, puzzle: Exclusion NG 2)    413
AGAUCGUCAGGAUAUACAUGAGGAUCACCCAUGUGUAGUCUAAAUUUGACUACAAUAUGUAGAAGGGACGAUCG [Exclusion 3 (MOD3 of #1 Marzena11)] (Eterna round: R97, puzzle: Exclusion 3)    98.9

Would you kindly share the measured apparent KD of MS2 coat protein for GAGAACUGAGGAUAUACAUGAGGAUCACCCAUGUUAAGAAGAUAGUAUUGAUGGUUCUGUAGAAGGCAGAGAGA [JR_Ex3_Sub066] (Eterna round: R97, puzzle: Exclusion 3) ? 34.5

Now consider CCUCCGUAUAAGGAUAUCGUCCAGGAAACUGGACGAGAAGGUAUGACAUGAGGAUCACCCAUGUGAAAGUGAUG [Mod of Brourd 25 - Jieux - Exclusion 6] (Eterna round: R97, puzzle: Exclusion 6) . 212

Now consider CAGUACUGAGGAUAUACAUGAGGAUCACCCAUGUGAGCGAUACUAGUGAGGUCGAUUAGUAGAAGGCAGUACUG [Mat X3R4 m33] (Eterna round: R97, puzzle: Exclusion 3) . 353

Now consider CCGUACGGAGGAUAUACAUGAGGAUCACCCAUGUGUCCGCGCGUGGGAACACGUAAUAGUAGAAGGCCGUCCGG [jl-ex3-4.78 Brourd automod] (Eterna round: R97, puzzle: Exclusion 3) . 491

Now consider UCGCUCCGUGUAGGAUAUCGCCGUAUGAUGCGGCGAGAAGGACAUGAGGAUCACCCAUGUAUGUUAUUAUCACGCGUGGCGCAA [Design 63] (Eterna round: R96, puzzle: Exclusion NG 1) . 17.4

Now consider AUUUUGUGAGGAUAUUAGUUGUAGAAAGUUGUUAGUAUUGCUGAGAAGGCACAUGAGGAUCACCCAUGUACAAC [JR_Ex4_Sub038] (Eterna round: R97, puzzle: Exclusion 4) . 20.6
